Target: T1, EsCas13d, nuclease-dead (Eubacterium siraeum, UniProt B0MS50, R295A;H300A;R849A;H854A)
T1 sequence: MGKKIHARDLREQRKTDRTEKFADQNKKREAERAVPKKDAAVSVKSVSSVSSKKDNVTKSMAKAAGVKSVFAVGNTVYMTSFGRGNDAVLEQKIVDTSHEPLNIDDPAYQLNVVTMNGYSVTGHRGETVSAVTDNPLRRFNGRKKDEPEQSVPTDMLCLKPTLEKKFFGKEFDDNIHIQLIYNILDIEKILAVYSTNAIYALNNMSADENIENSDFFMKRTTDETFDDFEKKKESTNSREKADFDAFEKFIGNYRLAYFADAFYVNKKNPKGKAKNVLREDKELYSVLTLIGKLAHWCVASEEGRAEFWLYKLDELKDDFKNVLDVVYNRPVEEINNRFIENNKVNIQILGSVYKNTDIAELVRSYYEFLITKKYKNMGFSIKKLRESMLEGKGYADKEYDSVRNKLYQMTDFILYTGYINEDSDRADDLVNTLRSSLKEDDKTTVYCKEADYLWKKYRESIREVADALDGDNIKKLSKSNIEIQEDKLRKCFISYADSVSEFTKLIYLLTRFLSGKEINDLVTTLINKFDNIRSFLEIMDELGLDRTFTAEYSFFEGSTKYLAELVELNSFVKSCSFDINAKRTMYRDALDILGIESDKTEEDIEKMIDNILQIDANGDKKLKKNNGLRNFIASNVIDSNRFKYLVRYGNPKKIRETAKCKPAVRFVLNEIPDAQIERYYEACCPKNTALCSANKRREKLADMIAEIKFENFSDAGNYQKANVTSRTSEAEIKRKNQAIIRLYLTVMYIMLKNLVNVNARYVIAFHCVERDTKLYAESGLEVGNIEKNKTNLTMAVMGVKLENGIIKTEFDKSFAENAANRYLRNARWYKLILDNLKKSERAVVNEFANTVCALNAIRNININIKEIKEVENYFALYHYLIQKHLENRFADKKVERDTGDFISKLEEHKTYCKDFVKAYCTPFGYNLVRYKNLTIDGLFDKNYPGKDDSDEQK
Assay: crRNA (strand 1, pre-loaded); Mg2+; 40 mM Tris-HCl pH 7.5, 150 mM NaCl, 6 mM MgCl2, 1 mM DTT, 0.1% Tween-20, 0.2 mg/ml BSA; 25 C; 10 min per concentration, then washed
Settings: tags: His6-TwinStrep-SUMO cleaved; N-terminal SNAP kept (SNAP-Surface 488); label: 3' end held by stalled T7 RNA polymerase
assay-metric: pKd
Friendly reminder that pKd comes from taking -log10 of the concentration in mol/L.

// target 1 A9G,A14C (mixed) RNA 1: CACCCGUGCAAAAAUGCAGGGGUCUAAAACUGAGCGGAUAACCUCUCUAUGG RNA 2: GGGAAUGGAUCCACAUCUACGAAUUCGUACCAUAGAGCGGUUGUCCGCUCACCGAGAUCGGAAGAGCACACGU : pKd value = 7.34
